pIC50 tested on Prothrombin (Homo sapiens): recorded values
# pIC50 = -log10(concentration in molar units)

Sample records with pIC50:
# CPD SMILES, ATTRIBUTE MEASURED, RECORDED RESULT
records = [
    ("Cc1ccc(NCC(=O)c2ccccc2)c(O)c1CC(=O)NCc1ccc(C(=N)N)cc1.Cl", "pIC50", 5.33),
    ("Cc1ccc(NS(=O)(=O)c2cccc(Cl)c2C)c(O)c1CC(=O)NCc1ccc(N)nc1C.Cl", "pIC50", 6.72),
    ("Cc1ccc(S(=O)(=O)Nc2ccc(C)c(CC(=O)NCc3ccc(N)nc3C)c2O)cc1F.Cl", "pIC50", 6.23),
    ("Cc1ccc(NS(=O)(=O)c2ccc(Cl)cc2)c(O)c1CC(=O)NCc1ccc(C(=N)N)cc1.Cl", "pIC50", 6.89),
    ("Cc1ccc(S(=O)(=O)Nc2ccc(C)c(CC(=O)NCc3ccc(C(=N)N)cc3)c2O)cc1.Cl", "pIC50", 6.60),
    ("Cc1ccc(S(=O)(=O)Nc2ccc(C)c(CC(=O)NCc3nccc(C)c3F)c2O)cc1Cl", "pIC50", 4.70),
]

Could you now look at the following compound, please?
Assay Prothrombin (Homo sapiens), sample Cc1ccc(NCS(=O)(=O)c2ccccc2)c(O)c1CC(=O)NCc1ccc(C(=N)N)cc1.Cl , pIC50 read: 6.72

====

Target: Trypsin (Homo sapiens, UniProt P07477+P07478+P35030)
Assay: Inhibitory activity against trypsin
Assay type: protein assay
Here, each record is paired with measured IC50 data.
Expressed in µM, but write only the number.

# CPD SMILES, VALUE UNIT, IC50
rows = [
    ("Cc1ccc(NS(=O)(=O)c2ccc(Cl)cc2F)c(O)c1CC(=O)NCc1ccc(C(=N)N)cc1.Cl", "µM", 0.68),
]

Could you now look at the following molecule, please?
The reported IC50 of the molecule COc1ccc(S(=O)(=O)Nc2ccc(C)c(CC(=O)NCc3ccc(C(=N)N)cc3)c2O)cc1.Cl was 0.91

====

Molecular target: Trypsin (Homo sapiens, UniProt P07477+P07478+P35030)
Test: Inhibitory activity against trypsin
Format: protein assay
Response field class: enum, chosen by comparing IC50 against low = under 0.6 µM, intermediate = from 0.6 µM up to 3 µM, high = 3 µM and over

# CPD SMILES, QUALITATIVE LABEL
data = [
    ("Cc1ccc(NCS(=O)(=O)c2ccccc2)c(O)c1CC(=O)NCc1ccc(N)nc1C.Cl", "high"),
    ("Cc1ccc(NS(=O)(=O)c2ccc(Cl)cc2)c(O)c1CC(=O)NCc1ccc(C(=N)N)cc1.Cl", "intermediate"),
    ("Cc1ccc(NS(=O)(=O)c2cc(Cl)ccc2Cl)c(O)c1CC(=O)NCc1ccnc(N)c1.Cl", "high"),
    ("Cc1ccnc(CNC(=O)Cc2c(C)ccc(NCS(=O)(=O)c3cccc(Cl)c3)c2O)c1F", "high"),
    ("Cc1ccc(C)c(S(=O)(=O)Nc2ccc(C)c(CC(=O)NCc3ccc(C(=N)N)cc3)c2O)c1.Cl", "low"),
]

Hi, small favor: classify Cc1ccc(S(=O)(=O)Nc2ccc(C)c(CC(=O)NCc3nccc(C)c3F)c2O)cc1Cl by its IC50 when you get a moment.
high

Hi, small favor: classify Cc1ccccc1S(=O)(=O)Nc1ccc(C)c(CC(=O)NCc2ccc(N)nc2C)c1O.Cl by its IC50 when you get a moment.
high

Hi, small favor: classify Cc1ccnc(CNC(=O)Cc2c(C)ccc(NS(=O)(=O)c3cccc(Cl)c3)c2O)c1F by its IC50 when you get a moment.
high

Hi, small favor: classify Cc1ccc(NCC(=O)c2ccccc2)c(O)c1CC(=O)NCc1ccc(C(=N)N)cc1.Cl by its IC50 when you get a moment.
high

====

Here, each record is paired with measured log10 IC50 data.
Target: Trypsin (Homo sapiens, UniProt P07477+P07478+P35030)
Experiment: Inhibitory activity against trypsin
Format: protein assay
Scale: decimal log of IC50, IC50 in nM.

Sample records with log10 IC50:
# CPD SMILES, log10 IC50
data = [
    ("Cc1ccc(NS(=O)(=O)c2ccccc2)c(O)c1CC(=O)NCc1ccc(C(=N)N)cc1.Cl", 2.78),
    ("Cc1ccc(NCS(=O)(=O)c2ccccc2)c(O)c1CC(=O)NCc1ccc(C(=N)N)cc1.Cl", 3.49),
    ("COc1cccc(S(=O)(=O)Nc2ccc(C)c(CC(=O)NCc3ccc(C(=N)N)cc3)c2O)c1.Cl", 2.45),
]

The reported log10 IC50 of the compound Cc1ccc(NCNC(=O)c2ccccc2)c(O)c1CC(=O)NCc1ccc(C(=N)N)cc1.Cl was 3.43

====

Here, each record is paired with measured IC50 data.
Biological target: Trypsin (Homo sapiens, UniProt P07477+P07478+P35030)
Experiment: Inhibitory activity against trypsin
Format: protein assay
Expressed in nM, but write only the number.

Sample records with IC50:
# CPD SMILES, TARGET OF ASSAY, VALUE UNIT, IC50
data = [
    ("Cc1ccc(NS(=O)(=O)c2cccc(C(F)(F)F)c2)c(O)c1CC(=O)NCc1ccc(C(=N)N)cc1.Cl", "Trypsin (Homo sapiens, UniProt P07477+P07478+P35030)", "nM", 2800),
    ("Cc1ccc(NS(=O)(=O)c2cccc3ccccc23)c(O)c1CC(=O)NCc1ccc(C(=N)N)cc1.Cl", "Trypsin (Homo sapiens, UniProt P07477+P07478+P35030)", "nM", 1100),
    ("COc1ccc(S(=O)(=O)Nc2ccc(C)c(CC(=O)NCc3ccc(C(=N)N)cc3)c2O)cc1OC.Cl", "Trypsin (Homo sapiens, UniProt P07477+P07478+P35030)", "nM", 340),
]

Could you now look at the following compound, please?
The reported IC50 of the compound Cc1ccc(S(=O)(=O)Nc2ccc(C)c(CC(=O)NCc3ccc(C(=N)N)cc3)c2O)cc1.Cl was 1100
